This listing pairs compounds with measured IC50.
Target: ERRα ligand binding domain (ERRα-LBD) (Homo sapiens, UniProt P11474)
Construct: made in house; host or cells: E. coli
Sequence (P11474 193-421 limits assumed): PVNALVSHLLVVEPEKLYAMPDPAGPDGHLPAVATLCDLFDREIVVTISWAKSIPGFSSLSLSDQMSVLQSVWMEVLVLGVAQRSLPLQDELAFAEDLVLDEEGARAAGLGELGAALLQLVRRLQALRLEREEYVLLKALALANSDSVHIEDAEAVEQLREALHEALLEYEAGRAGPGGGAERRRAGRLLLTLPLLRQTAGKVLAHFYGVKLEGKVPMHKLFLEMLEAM
Test: ERRα AlphaScreen Assay
Format: biochemical
Conditions: disruption of binding of ERRα-LBD protein to biotin-PGC1α-3 co-activator peptide; read-out: mean pIC50 (converted)

compound="COc1cc(C2CC(=O)Nc3n[nH]cc32)ccc1Oc1ccccc1C1CCCC1 (centres unmarked) [Example 25]" experimental_value="100 to 1000 nM"
compound="COc1cc(C2CC(=O)Nc3n[nH]cc32)ccc1Oc1cc(C(F)(F)F)cc(C(F)(F)F)c1 (racemic) [Example 43]" experimental_value="10 to 100 nM"
compound="O=C1CC(c2ccc(Oc3ccccc3S(F)(F)(F)(F)F)cc2)c2c[nH]nc2N1 (centres unmarked) [Example 59]" experimental_value="100 to 1000 nM"
compound="CCc1cccc(Oc2ccc(C3CC(=O)Nc4n[nH]cc43)cc2OC)c1 (centres unmarked) [Example 21]" experimental_value="100 to 1000 nM"
compound="COc1cc(C2CC(=O)Nc3n[nH]cc32)ccc1Oc1ccc(C(=O)O)cc1C(C)(C)C (centres unmarked) [Example 61]" experimental_value="10 to 100 nM"
compound="COc1cc(C2CC(=O)Nc3n[nH]cc32)ccc1Oc1ccccc1C1CC1 (centres unmarked) [Example 28]" experimental_value="10 to 100 nM"

Request: # query: IC50 of entry COc1cc(C2CC(=O)Nc3n[nH]cc32)ccc1Oc1cc(C)cc(C)c1 (single isomer, unassigned; (+)) [Example 81]
Result: 100 to 1000 nM

Request: Entry COc1cc(C2CC(=O)Nc3n[nH]cc32)ccc1Oc1cc(C)cc(C)c1 (single isomer, unassigned; (-)) [Example 82] has what IC50?
Result: 10 to 100 nM

---

Catalogue of IC50 values
molecular target: full length ERRα (Homo sapiens, UniProt P11474); construct: an over-expression construct coding full length ERRα; expressed in transfected cells; host or cells: SK-BR-3 cells, transient co-transfection of pLP2124 (pcDNA3.1/Hygro(+) background) and reporter pLP2175; assay: Full Length ERRα Reporter Gene Assay; type: cell-based; settings: SK-BR-3 cells, ERRα-RE luciferase reporter, overnight incubation; read-out: mean pIC50 (converted)

molecule="COc1cc(C2CC(=O)Nc3n[nH]cc32)ccc1Oc1ccc(C(C)(C)C)cc1C(C)(C)C (stereo not drawn) [Example 37]" target_system="full length ERRα (Homo sapiens, UniProt P11474)" experimental_value="≤ 316 nM"

Request: Which IC50 value belongs to COC(=O)c1ccc(Oc2ccc(C3CC(=O)Nc4n[nH]cc43)cc2OC)c(C(C)(C)C)c1 (stereo not drawn) [Example 35] ?
Result: ≤ 316 nM

Request: What value of measured IC50 is listed for COc1cc(Oc2ccc(C3CC(=O)Nc4n[nH]cc43)cc2OC)cc(C(F)(F)F)c1 (stereo not drawn) [Example 38] ?
Result: ≤ 316 nM

---

molecular target: ERRα ligand binding domain (ERRα-LBD) (Homo sapiens, UniProt P11474); construct: made in house; host or cells: E. coli; test: ERRα AlphaScreen Assay; format: biochemical; conditions: disruption of binding of ERRα-LBD protein to biotin-PGC1α-3 co-activator peptide; read-out: mean pIC50 (converted)
Reported IC50 by item:

molecule="COc1cc(C2CC(=O)Nc3n[nH]cc32)ccc1Oc1ccc2c(c1)CCC2 (stereo not shown)" target_system="ERRα ligand binding domain (ERRα-LBD) (Homo sapiens, UniProt P11474)" property=IC50 experimental_value="100 to 1000 nM"
molecule="COc1cc(C2CC(=O)Nc3n[nH]cc32)ccc1Oc1cc(Br)cc(C(F)(F)F)c1 (stereo not shown)" target_system="ERRα ligand binding domain (ERRα-LBD) (Homo sapiens, UniProt P11474)" property=IC50 experimental_value="10 to 100 nM"
molecule="COc1cc(C2CC(=O)Nc3n[nH]cc32)ccc1Oc1ccccc1-c1ccccc1 (stereo not shown)" target_system="ERRα ligand binding domain (ERRα-LBD) (Homo sapiens, UniProt P11474)" property=IC50 experimental_value="100 to 1000 nM"

Request: Data request, read-out IC50, for COc1cc(C2CC(=O)Nc3n[nH]cc32)ccc1Oc1cc(C)cc(C(F)(F)F)c1 (single isomer, unassigned; (-)) [Example 84]
Result: ≤ 10 nM

Request: Quick one: IC50 of COc1cc(C2CC(=O)Nc3n[nH]cc32)ccc1Oc1cc(C)cc(C(F)(F)F)c1 (stereo not shown) [Example 63] ?
Result: ≤ 10 nM

Request: Which IC50 value belongs to CCc1ccc(Oc2ccc(-c3cc(=O)[nH]c4n[nH]cc34)cc2OC)c(C(C)(C)C)c1 ?
Result: ≤ 10 nM

Request: Please give the measured IC50 for this molecule: COc1cc(C2CC(=O)Nc3n[nH]cc32)ccc1Oc1cccc(C(F)(F)F)c1 (stereo not shown)
Result: 100 to 1000 nM

Request: Please give the measured IC50 for this molecule: COc1cc(C2CC(=O)Nc3n[nH]cc32)ccc1Oc1cccc2c1CCC2 (stereo not shown)
Result: 10 to 100 nM

Request: Fill in the blank: the reported IC50 of CCc1ccc(Oc2ccc(C3CC(=O)Nc4n[nH]cc43)cc2OC)c(C(C)(C)C)c1 (stereo not shown) is ____.
Result: ≤ 10 nM

Request: IC50 for COc1cc(Oc2ccc(C3CC(=O)Nc4n[nH]cc43)cc2)cc(C(F)(F)F)c1 (stereo not shown) ?
Result: 10 to 100 nM

Request: Dear colleague, I am looking for the recorded IC50 of the following molecule: COc1cc(C2CC(=O)Nc3n[nH]cc32)ccc1Oc1ccccc1Br (stereo not shown)
Result: 100 to 1000 nM

Request: Endpoint output: IC50 of COc1cc(C2CC(=O)Nc3n[nH]cc32)ccc1Oc1cccc(C(C)C)c1 (stereo not shown) . Value?
Result: 10 to 100 nM

Request: Returns the measured IC50 for the input molecule. Input: COc1cc(C2CC(=O)Nc3n[nH]cc32)ccc1Oc1cccc(Br)c1 (stereo not shown)
Result: 100 to 1000 nM

Request: Could you share which IC50 value was measured for COc1cc(C2CC(=O)Nc3n[nH]cc32)ccc1Oc1cccc(OC(F)(F)F)c1 (stereo not shown) ?
Result: 100 to 1000 nM

Request: Given the entry COc1cc(C2CC(=O)Nc3n[nH]cc32)ccc1Oc1ccccc1C(F)(F)F (stereo not shown) , report its measured IC50.
Result: 100 to 1000 nM

Request: Which IC50 value is on record for COc1cc(C2CC(=O)Nc3c[nH]cc32)ccc1Oc1cc(C(F)(F)F)cc(C(F)(F)F)c1 (stereo not shown) ?
Result: 10 to 100 nM

---

Molecular target: ERRα ligand binding domain (ERRα-LBD) (Homo sapiens)
Construct: made in house; host or cells: E. coli
Sequence (P11474 193-421 limits assumed): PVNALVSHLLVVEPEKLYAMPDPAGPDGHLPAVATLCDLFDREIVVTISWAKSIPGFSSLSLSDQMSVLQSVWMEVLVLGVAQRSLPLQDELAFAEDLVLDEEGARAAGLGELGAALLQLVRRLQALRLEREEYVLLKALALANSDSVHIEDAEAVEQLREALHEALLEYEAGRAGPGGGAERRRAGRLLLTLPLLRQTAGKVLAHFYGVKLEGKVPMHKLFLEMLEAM
Assay: ERRα AlphaScreen Assay
Assay type: biochemical
Settings: disruption of binding of ERRα-LBD protein to biotin-PGC1α-3 co-activator peptide; read-out: mean pIC50 (converted)
PROPERTY: IC50

molecule="O=C1CC(c2ccc(Oc3ccccc3S(F)(F)(F)(F)F)c(OC(F)(F)F)c2)c2c[nH]nc2N1 (stereo not shown)" experimental_value="10 to 100 nM"
molecule="COc1cc(C2CC(=O)Nc3n[nH]cc32)ccc1Oc1cc(C(F)F)cc(C(F)(F)F)c1 (single isomer, unassigned; (-)) [Example 86]" experimental_value="≤ 10 nM"
molecule="COc1cc(C2CC(=O)Nc3n[nH]cc32)ccc1Oc1ccc(O)c(C(C)(C)C)c1 (stereo not shown)" experimental_value="≤ 10 nM"

Request: Quick one: IC50 for COc1cc(C2CC(=O)Nc3n[nH]cc32)ccc1Oc1ccc(C#N)c2ccccc12 (stereo not shown) ?
Result: 10 to 100 nM
